Reference source for all entries: ChEMBL document CHEMBL1123926

Overview of recorded ED50 for various compounds
Target: Dopamine receptor (Mus musculus) (UniProt P51436+Q8BLD9+Q61616+P61168+P30728)
Assay: Neuroleptic activity determined by its inhibitory effect on apomorphine-induced climbing behavior in mice by intraperitoneal administration
Format: functional, organism-based
QUANTITY_MEASURED: ED50 (mg/kg)

COMPOUND | QUANTITY_MEASURED | MEASUREMENT_UNIT | QUALIFIER_OPERATOR | EXPERIMENTAL_VALUE
Oc1nc2cc(C(F)(F)F)ccc2n1C1CCN(CC2COc3ccccc3O2)CC1 (configuration not stated) | ED50 | mg/kg | > | 10
CCc1ccc2c(c1)nc(O)n2C1CCN(CC2COc3ccccc3O2)CC1 (configuration not stated) | ED50 | mg/kg | = | 0.17
Cc1c(Cl)ccc2nc(O)n(C3CCN(CC4COc5ccc(F)cc5O4)CC3)c12 (configuration not stated) | ED50 | mg/kg | > | 25
Oc1nc2cccc(Cl)c2n1C1CCN(CC2COc3ccc(F)cc3O2)CC1 (configuration not stated) | ED50 | mg/kg | > | 25
Oc1nc2cc(Cl)c(Cl)cc2n1C1CCN(CC2COc3ccccc3O2)CC1 (configuration not stated) | ED50 | mg/kg | = | 0.45
Oc1nc2cc(Cl)ccc2n1C1CCN(CC2COc3cc(F)ccc3O2)CC1 (configuration not stated) | ED50 | mg/kg | = | 0.2
Cc1ccc2c(c1)nc(O)n2C1CCN(CC2COc3cc(Cl)c(Cl)cc3O2)CC1 (configuration not stated) | ED50 | mg/kg | = | 3.6
Cc1c(Cl)ccc2nc(O)n(C3CCN(CC4COc5ccccc5O4)CC3)c12 (configuration not stated) | ED50 | mg/kg | = | 10
Cc1ccc2c(c1)nc(O)n2C1CCN(CC2COc3cc(F)ccc3O2)CC1 (configuration not stated) | ED50 | mg/kg | = | 0.5
Oc1nc2cc(-c3ccccc3)ccc2n1C1CCN(CC2COc3ccccc3O2)CC1 (configuration not stated) | ED50 | mg/kg | > | 25
Cc1ccc2c(c1)nc(O)n2C1CCN(CC2COc3ccc(Cl)cc3O2)CC1 (configuration not stated) | ED50 | mg/kg | = | 0.093
Oc1nc2cc(Cl)ccc2n1C1CCN(CC2COc3ccc(Cl)cc3O2)CC1 (configuration not stated) | ED50 | mg/kg | = | 0.75
Nc1ccc2c(c1)nc(O)n2C1CCN(CC2COc3ccccc3O2)CC1 (configuration not stated) | ED50 | mg/kg | = | 3.9
Cc1cccc2c1OCC(CN1CCC(n3c(O)nc4cc(Cl)ccc43)CC1)O2 (configuration not stated) | ED50 | mg/kg | = | 1.3
Oc1nc2ccccc2n1C1CCN(CC2COc3ccccc3O2)CC1 (configuration not stated) | ED50 | mg/kg | = | 0.7
Oc1nc2cccnc2n1C1CCN(CC2COc3ccc(F)cc3O2)CC1 (configuration not stated) | ED50 | mg/kg | > | 25
CC(C)(C)c1ccc2c(c1)nc(O)n2C1CCN(CC2COc3ccccc3O2)CC1 (configuration not stated) | ED50 | mg/kg | > | 25
Oc1nc2cccc(Cl)c2n1C1CCN(CC2COc3ccccc3O2)CC1 (configuration not stated) | ED50 | mg/kg | > | 20
Oc1nc2ccc(Cl)cc2n1C1CCN(CC2COc3ccccc3O2)CC1 (configuration not stated) | ED50 | mg/kg | = | 0.11
Oc1nc2cc(Cl)ccc2n1C1CCN(CC2COc3cc(Cl)c(Cl)cc3O2)CC1 (configuration not stated) | ED50 | mg/kg | = | 6
Cc1cc2c(cc1C)OC(CN1CCC(n3c(O)nc4cc(Cl)ccc43)CC1)CO2 (configuration not stated) | ED50 | mg/kg | = | 0.8
Oc1nc2cc(F)ccc2n1C1CCN(CC2COc3cc(F)ccc3O2)CC1 (configuration not stated) | ED50 | mg/kg | = | 0.63
Oc1nc2cccnc2n1C1CCN(CC2COc3ccccc3O2)CC1 (configuration not stated) | ED50 | mg/kg | > | 10
Oc1nc2cc(F)ccc2n1C1CCN(CC2COc3cc(Cl)c(Cl)cc3O2)CC1 (configuration not stated) | ED50 | mg/kg | = | 5.5
Oc1nc2cc(Cl)c(Cl)cc2n1C1CCN(CC2COc3ccc(F)cc3O2)CC1 (configuration not stated) | ED50 | mg/kg | = | 1.4
Oc1nc2cc(C(F)(F)F)ccc2n1C1CCN(CC2COc3ccc(F)cc3O2)CC1 (configuration not stated) | ED50 | mg/kg | > | 10
Oc1nc2ccc(Cl)cc2n1C1CCN(CC2COc3ccc(F)cc3O2)CC1 (configuration not stated) | ED50 | mg/kg | = | 0.16
